For each of the compounds below, state its solubility.
Assay: Solubility
Assay type: physicochemical
Settings: aqueous media, water, or buffer pH 6.5; read-out: Solubility
Give just the number in µg/mL; leave the unit off.

stdin: Need solubility, item CC(C)C(=O)OC[C@H]1O[C@@H](n2ccc(N)nc2=O)[C@](C)(F)[C@@H]1OC(=O)C(C)C
stdout: 180

stdin: Need solubility, item CCCOC(=O)OC[C@H]1O[C@@H](n2ccc(N)nc2=O)[C@](C)(F)[C@@H]1OC(=O)OCCC.Cl
stdout: 130

stdin: Need solubility, item C[C@@]1(F)[C@H](O)[C@@H](CO)O[C@H]1n1ccc(N)nc1=O [I-6, reference compound]
stdout: 76000
